Measured values drawn from patent US20100227921A1 for this set.

# Protocol summary: Comparative bioavailability after oral administration to rats (plasma LC-MS-MS)
# Assay type: in vivo
# Study conditions: male, Sprague Dawley, rat, plasma, po, 10 mg free base equiv/kg, oral tapentadol 10 mg free base equiv/kg, median, animal 5 excluded, read-out: Tmax of tapentadol
Experimental readout: Tmax (h)
Give bare numbers, in h.

Please look up its Tmax: CC[C@@H](c1cccc(O)c1)[C@@H](C)CN(C)C (racemic) 1

---

# Protocol summary: Comparative bioavailability after oral administration to rats (plasma LC-MS-MS)
# Assay type: in vivo
# Study conditions: male, Sprague Dawley, rat, plasma, po, 10 mg tapentadol free base equiv/kg, oral tapentadol valine carbamate 10 mg tapentadol free base equiv/kg, 3 h, mean, read-out: Plasma concentration of tapentadol valine carbamate
Experimental readout: concentration at 3 h (ng/mL)
Numbers only, in ng/mL.

Please look up its concentration at 3 h: CC[C@H](c1cccc(OC(=O)N[C@H](C(=O)O)C(C)C)c1)[C@H](C)CN(C)C (racemic) [Tapentadol valine carbamate] 68.8
